// provenance: paper PMC5540273

System: MYLK;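 also: KINOMEscan kinase panel screen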
condition-set: concentration: 1 μM, replicates: in singlicate; n = 1
Could you please mark 1.0 for values of %Inh below 20% and 0.0 for values at or above it?

molecule: COc1cc(Nc2nccc(N3CCC(NC(=O)Nc4cccc(C(C)=O)c4)C3)n2)cc(OC)c1OC (stereo not drawn)
class: 1.0
--
molecule: C[C@@H](Oc1cc(-n2cnc3cc(-c4ccnc(NCCS(C)(=O)=O)c4)ccc32)sc1C(N)=O)c1ccccc1Cl
class: 1.0
--
molecule: CNC(=O)c1ccccc1Nc1nc(Nc2ccc(N3CCOCC3)cc2)ncc1Cl.Cl
class: 0.0
--
molecule: Cc1cccc(NC(=O)Nc2ccc(Oc3ncnc4ccn(C)c34)cc2)c1
class: 1.0
--
molecule: COc1ccc(Nc2nccc(NCCNC(=O)c3cc4ccccc4s3)n2)cc1
class: 1.0

Ask | A record lists `COc1cc2c(cc1OCCN1CCNCC1)ncc1c3ccc(C#N)cc3[nH]c21` . Is its %Inh below 20%?
Reply | 0.0

Ask | And the next one, `CC(=O)Nc1nc2cnc(Nc3cc(NC(=O)c4cccc(C5(C#N)CC5)c4Cl)ccc3C)nc2s1` ?
Reply | 1.0

Ask | And the next one, `O=C(Nc1cccc(-c2nn3ncccc3c2-c2ccnc(Nc3ccccc3)n2)c1)c1c(F)cccc1F` ?
Reply | 1.0

Ask | And the next one, `O=C(Nc1cccc(-c2nn3ccccc3c2-c2ccnc(Nc3cccc(C(F)(F)F)c3)n2)c1)c1c(F)cccc1F` ?
Reply | 1.0

Ask | And the next one, `Cc1ccc(S(=O)(=O)Nc2ccc(Nc3nccc(Nc4cccc5[nH]ncc45)n3)cc2)cc1` ?
Reply | 1.0

Ask | And the next one, `Fc1ccc(-c2ncn(C3CCNCC3)c2-c2ccnc(Oc3ccc(-c4ccccc4)cc3)n2)cc1` ?
Reply | 1.0

Ask | And the next one, `COCCOCCOc1cc2ncc3c4ccc(C#N)cc4[nH]c3c2cc1OC` ?
Reply | 0.0
